Target protein (sequence): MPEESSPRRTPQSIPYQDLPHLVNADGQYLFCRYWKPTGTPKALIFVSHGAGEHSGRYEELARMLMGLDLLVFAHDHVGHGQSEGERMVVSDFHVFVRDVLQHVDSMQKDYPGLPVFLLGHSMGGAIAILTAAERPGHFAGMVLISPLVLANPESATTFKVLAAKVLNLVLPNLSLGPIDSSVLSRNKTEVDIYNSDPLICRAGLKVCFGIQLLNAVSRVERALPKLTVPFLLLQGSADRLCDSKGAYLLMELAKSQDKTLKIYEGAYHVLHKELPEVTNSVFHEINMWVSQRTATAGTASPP
List of IC50 values.
Response body: numeric value in nM, unit text excluded.

The examples below pair each entry with its known result.
> print(dat)
                                   molecule  experimental.readout  result.number
1  CC(C)(C)Cn1ccc(-c2ccc(C3CN(C(=O)N4CC[C@@H]5OCC(=O)N[C@@H]5C4)C3)cc2)n1 [Example 32b]                  IC50            6.5
2  Cc1ccnnc1Oc1ccc(C2CN(C(=O)N3CC[C@@H]4OCC(=O)N[C@@H]4C3)C2)cc1                  IC50           42.9
3  CC(C)(C)Cn1nccc1-c1ccc(C2CN(C(=O)N3CC[C@@H]4OCC(=O)N[C@@H]4C3)C2)cc1 [Example 32a]                  IC50            0.2

Pending molecule:
Tell us which IC50 value is on record for CS(=O)(=O)c1nccc(Oc2ccc(C3CN(C(=O)N4CC[C@@H]5OCC(=O)N[C@@H]5C4)C3)cc2)n1 90.9

* * *

target-desc: MAGL (Homo sapiens)
# label = True if IC50 < 10 nM else False

Examples from the recorded data:
> print(dat)
                                   molecule          target.desc  class.label
1  O=C1CO[C@H]2CCN(C(=O)N3CC(c4ccc(Oc5cccc(Cl)c5)cc4)C3)C[C@H]2N1  MAGL (Homo sapiens)         True
2  O=C1CO[C@H]2CCN(C(=O)N3CC(c4ccc(Oc5cccnn5)cc4)C3)C[C@H]2N1  MAGL (Homo sapiens)        False
3  O=C1CO[C@H]2CCN(C(=O)N3CC(c4ccc(Oc5cccc(F)c5)cc4)C3)C[C@H]2N1  MAGL (Homo sapiens)         True
4  O=C1CO[C@H]2CCN(C(=O)N3CC(c4ccc(Oc5ccc(Cl)cc5)nc4)C3)C[C@H]2N1  MAGL (Homo sapiens)         True
5  O=C1CO[C@H]2CCN(C(=O)N3CC(O)(c4ccc(Oc5ccccc5)cc4)C3)C[C@H]2N1  MAGL (Homo sapiens)        False
6  O=C1CO[C@H]2CCN(C(=O)N3CC(c4ccc(Oc5ccccc5Cl)nc4)C3)C[C@H]2N1  MAGL (Homo sapiens)         True

Note: attention shifts to another entry.
Please determine if Cn1nccc1-c1ccc(C2CN(C(=O)N3CC[C@@H]4OCC(=O)N[C@@H]4C3)C2)cc1 is below 10 nM in terms of IC50. False

* * *

Target sequence: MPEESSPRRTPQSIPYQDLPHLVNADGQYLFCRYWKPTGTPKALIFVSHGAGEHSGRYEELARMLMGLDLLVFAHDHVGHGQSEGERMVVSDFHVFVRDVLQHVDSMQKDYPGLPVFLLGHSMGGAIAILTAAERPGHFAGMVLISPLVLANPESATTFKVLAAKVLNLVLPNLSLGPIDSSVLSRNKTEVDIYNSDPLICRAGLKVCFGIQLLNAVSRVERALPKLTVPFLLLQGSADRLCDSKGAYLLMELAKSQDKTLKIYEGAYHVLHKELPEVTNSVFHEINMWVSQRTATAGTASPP
pIC50: −log10 of the molar value.
Cut-off 8 on pIC50, inclusive. At or above means MET; below means NOT MET.

Examples from the recorded data:
> print(dat)
                                   molecule  class.label
1  O=C1CO[C@H]2CCN(C(=O)N3CC(c4ccc(Oc5ccnc(Cl)n5)cc4)C3)C[C@H]2N1          MET
2  Cc1cc(C)n(-c2ccc(C3CN(C(=O)N4CC[C@@H]5OCC(=O)N[C@@H]5C4)C3)cc2)n1      NOT MET
3  O=C1CO[C@H]2CCN(C(=O)N3CC(c4ccc(Oc5ccccc5F)cc4)C3)C[C@H]2N1          MET

Could you verify whether the entry Cc1cccc(Oc2ccc(C3CN(C(=O)N4CC[C@@H]5OCC(=O)N[C@@H]5C4)C3)cc2)n1 shows pIC50 of no less than 8? MET

Could you verify whether the entry O=C1CO[C@H]2CCN(C(=O)N3CC(c4ccc(Oc5ccc(F)cc5)nc4)C3)C[C@H]2N1 shows pIC50 of no less than 8? NOT MET

Could you verify whether the entry O=C1CO[C@H]2CCN(C(=O)N3CC(c4ccc(Oc5cccnc5)cc4)C3)C[C@H]2N1 shows pIC50 of no less than 8? MET

Could you verify whether the entry O=C1CO[C@H]2CCN(C(=O)N3CC(c4ccc(-c5ccc(F)nc5)cc4)C3)C[C@H]2N1 shows pIC50 of no less than 8? NOT MET

Could you verify whether the entry O=C1CO[C@H]2CCN(C(=O)N3CC(c4ccc(Oc5nccc(C6CC6)n5)cc4)C3)C[C@H]2N1 shows pIC50 of no less than 8? MET

Could you verify whether the entry O=C1CO[C@H]2CCN(C(=O)N3CC(c4ccc(Oc5ccccc5)cc4)C3)C[C@H]2N1 shows pIC50 of no less than 8? MET

Could you verify whether the entry O=C1CO[C@H]2CCN(C(=O)N3CC(c4ccc(Oc5ccc(F)cc5)cc4)C3)C[C@H]2N1 shows pIC50 of no less than 8? MET
